System: Pseudomonas aeruginosa
Test Summary: MBEC assay: sessile (biofilm) MIC of antibiotics in absence and presence of LMS-611
Type: cell-based
Study Conditions: PA strain H183; in presence of LMS-611 (10 mg/mL)
Assay Endpoint: sessile MIC + LMS (µg/mL)
Give bare numbers, in µg/mL.

Worked cases, answers included:
# Smiles Entry, Endpoint Unit, sessile MIC + LMS
records = [
    ("CCN1CCN(C(=O)N[C@@H](C(=O)N[C@@H]2C(=O)N3[C@@H]2SC(C)(C)[C@@H]3C(=O)O)c2ccccc2)C(=O)C1=O", "µg/mL", 250),
    ("C[C@@H](O)[C@H]1C(=O)N2C(C(=O)O)=C(S[C@@H]3CN[C@H](C(=O)N(C)C)C3)[C@H](C)[C@H]12", "µg/mL", 1000),
]

For the next question, use this compound.
Provide measured sessile MIC + LMS value, entry: C[C@H]1[C@H](NC(=O)/C(=N\OC(C)(C)C(=O)O)c2csc(N)n2)C(=O)N1S(=O)(=O)O
2000
